// compounds with reported Ki on UniProtKB P30543, multi-publication
ATTRIBUTE_MEASURED: Ki (nM)

[in] Query Ki for CCNC(=O)[C@H]1OC(n2cnc3c(N)nc(C#Cc4cccc(C=O)c4)nc32)[C@H](O)[C@@H]1O (some centres undefined)
[out] 176

I = CCNC(=O)[C@H]1O[C@@H](n2cnc3c(NC(=O)NC(C)(C)C)ncnc32)[C@H](O)[C@@H]1O
II = CCCn1c(=O)[nH]c2[nH]c(-c3ccc(S(=O)(=O)NCCc4ccccc4)cc3)nc2c1=O
III = Nc1nc(N2CCN(Cc3c(Cl)ccc(Cl)c3Cl)CC2)nc2nc(-c3ccco3)nn12
[in] Please list these in order of increasing Ki. Thank you! Please list the labels according to the requested order.
[out] III, II, I
(III: 18 nM, II: 297 nM, I: 3670 nM)

###

pKi: −log10 of the molar value.
// compounds with reported pKi on Adenosine receptor A2a (Rattus norvegicus), multi-publication
Sequence (P30543 whole entry): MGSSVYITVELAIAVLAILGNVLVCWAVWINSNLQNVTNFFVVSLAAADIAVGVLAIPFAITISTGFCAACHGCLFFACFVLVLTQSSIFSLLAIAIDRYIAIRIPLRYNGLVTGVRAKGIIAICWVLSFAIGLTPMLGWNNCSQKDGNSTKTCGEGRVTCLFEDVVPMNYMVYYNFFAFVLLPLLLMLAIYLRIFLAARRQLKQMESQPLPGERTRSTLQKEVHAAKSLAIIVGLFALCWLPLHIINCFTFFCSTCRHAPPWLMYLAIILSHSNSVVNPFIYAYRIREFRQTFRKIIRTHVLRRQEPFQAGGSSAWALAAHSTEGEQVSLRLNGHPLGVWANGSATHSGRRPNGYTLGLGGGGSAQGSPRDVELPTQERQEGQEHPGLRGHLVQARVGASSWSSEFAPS
ATTRIBUTE_MEASURED: pKi

[in] Query pKi for CN(C)C(=O)Cn1cc(-c2nc(N)c3ncn([C@@H]4O[C@H](CO)[C@@H](O)[C@H]4O)c3n2)cn1
[out] 4.68

1 = CCn1c(=O)c2c(nc(/C=C/C=C/c3ccccc3)n2CC)n(CC)c1=O
2 = Cn1c(=O)c2[nH]c(-c3ccc(S(=O)(=O)NCCc4ccccc4)cc3)nc2n(C)c1=O
3 = Nc1nc(-c2cccc(C(=O)N3CCOCC3)c2)cn2nc(-c3ccco3)nc12
4 = CC(=O)Nc1cc(-c2cncc(O)c2)nc(-n2nc(C)cc2C)n1
[in] Please list these in order of increasing pKi. Thank you! Please list the labels according to the requested order.
[out] 3, 2, 4, 1

P = CCCSC[C@H]1O[C@@H](n2cnc3c(N)nc(I)nc32)[C@H](O)[C@@H]1O
Q = COc1ccc(N2CCOCC2)c2sc(NC(=O)N3CCC(CF)CC3)nc12
[in] // compare measured pKi, left P , right Q , return larger To answer, give the label that identifies your chosen option.
[out] Q
(Q: 7.69, P: 6.36)

A = O=C(Nc1nc(-c2ccccc2)c(C(=O)c2ccc(Cl)cc2)s1)c1ccccc1
B = CCCOC1=Nc2c(cnn2-c2ccccc2)C2=N[C@H](C)[C@@H](c3ccccc3)N12
C = Nc1nc(NC[C@H]2CCCN2Cc2ccc(Cl)cc2Cl)nc2nc(-c3ccco3)nn12
D = Cn1c(=O)c2c(nc(OCc3ccccc3)n2C)n(C)c1=O
E = CSC[C@H]1O[C@@H](n2cnc3c(N)nc(N/N=C/CC(C)C)nc32)[C@H](O)[C@@H]1O
[in] Please list these in order of increasing pKi. Thank you! Please list the labels according to the requested order.
[out] B, D, A, E, C
(B: 4.96, D: 5.37, A: 5.78, E: 6.66, C: 7.96)

###

// compounds with reported Ki on Adenosine receptor A2a (Rattus norvegicus), multi-publication
ATTRIBUTE_MEASURED: Ki (nM)

Some solved cases for reference:
[in] Query Ki for CCNC(=O)[C@H]1OC(n2cnc3c(N)nc(C#Cc4ccc(OC)cc4)nc32)[C@H](O)[C@@H]1O (stereo not given in full)
[out] 52.4

[in] Query Ki for Nc1nc(N2CCN(Cc3ccc4ccccc4n3)CC2)nc2nc(-c3ccco3)nn12
[out] 73

1 = CCCCn1c(=O)c2c(nc3n2CCCN3CCc2ccc(OCCN(CC)CC)cc2)n(CCCC)c1=O
2 = CCN1CCN(CC(=O)Nc2cc(-n3nc(C)cc3C)nc(-c3ccc(C)o3)n2)CC1
[in] // compare measured Ki, left 1 , right 2 , return larger To answer, give the label that identifies your chosen option.
[out] 1
